assay: Bulk density (poured and tapped) of drug powders and processing aid; format: physicochemical; conditions: entries with asterisk: Bulk Densities performed at PRC
Counter-ions that a name gives are not always drawn.
Value Kind: Tapped Bulk Densities (g/mL)
Report as a plain number; the unit g/mL is understood.

Returns the measured Tapped Bulk Densities for the input molecule. Input: Cn1c(=O)c2[nH]cnc2n(C)c1=O [Theophylline Anhydrous]
0.44

Tell me the measured Tapped Bulk Densities of Cn1c(=O)c2[nH]cnc2n(C)c1=O [Aminophylline USP, Aminophylline] , please.
0.62

Dear colleague, I am looking for the recorded Tapped Bulk Densities of the following molecule: COc1cccc(C2(O)CCCCC2CN(C)C)c1 (centres unmarked) [Tramadol HCL]
0.42

Consider the molecule shown here: O=C(O)Cc1ccccc1Nc1c(Cl)cccc1Cl [Diclofenac Sodium] What is its recorded Tapped Bulk Densities?
0.31

Would you kindly share the measured Tapped Bulk Densities for O=C1O[C@H]([C@@H](O)CO)C([O-])=C1O.[Na+] [Sodium Ascorbate USP, Sodium Ascorbate] ?
0.66

----------
assay: Bulk density (poured and tapped) of drug powders and processing aid; type: physicochemical; settings: powder used in the examples
Where a name gives a salt, the structure may show the parent alone.

Compound | bulk density
O.OC[C@H]1O[C@@H](O[C@H]2[C@H](O)[C@@H](O)[C@@H](O)O[C@@H]2CO)[C@H](O)[C@@H](O)[C@H]1O [lactose hydrous impalpable] | 0.56 g/mL
COc1cccc(C2(O)CCCCC2CN(C)C)c1 (stereo not shown) [Tramadol HCL] | about 0.42 g/ml
CC(=O)Nc1ccc(O)cc1 [Acetaminophen] | about 0.42 g/ml
